Tested on: Mus musculus
Experiment: Toxicity in ovariectomized ICR mouse assessed as effect on spleen weight at 110.3 nmol/kg, po after 4 weeks
Assay type: organism-based
Settings: in vivo, 672 h
Numbered stars: 1 amine (or outer) side, 2 acyl side, 3 side chain; on linkers, the order of the positions; unused ones are H or OH. Bridge positions count the residues as written; N and C are the ends. Peptide text beside a SMILES is read from it. I, II: the chains in the order shown. * marks the point of attachment. Estradiol(3-OCH2CO,17-OSuc) = C[C@]12CC[C@@H]3c4ccc(OCC(=O)[*:1])cc4CC[C@H]3[C@@H]1CC[C@@H]2OC(=O)CCC(=O)[*:2]; X1 = C[C@]12CC[C@@H]3c4ccc(OCC(=O)*)cc4CC[C@H]3[C@@H]1CCC2=O

COMPOUND	Activity
CC(C)[C@H](NC(=O)[C@H](CC(=O)O)NC(=O)CNC(=O)[C@H](CCCNC(=N)N)NC(=O)[C@@H](NC(=O)[C@H](CC(=O)O)NC(=O)CNC(=O)[C@H](CCCNC(=N)N)NC(=O)COc1ccc2c(c1)CC[C@@H]1[C@@H]2CC[C@]2(C)C(=O)CC[C@@H]12)C(C)C)C(=O)O (X1-RGDVRGDV-OH)	Non-toxic
C[C@]12CC[C@@H]3c4ccc(OCC(=O)N[C@@H](CCCNC(=N)N)C(=O)NCC(=O)N[C@@H](CC(=O)O)C(=O)N[C@@H](CO)C(=O)O)cc4CC[C@H]3[C@@H]1CC[C@@H]2OC(=O)CCC(=O)N[C@@H](CCCNC(=N)N)C(=O)NCC(=O)N[C@@H](CC(=O)O)C(=O)N[C@@H](CO)C(=O)O (I: RGDS-OH / II: RGDS-OH; linker I:N-II:N via Estradiol(3-OCH2CO,17-OSuc))	Non-toxic
C[C@]12CC[C@@H]3c4ccc(OCC(=O)N[C@@H](CCCNC(=N)N)C(=O)NCC(=O)N[C@@H](CC(=O)O)C(=O)N[C@@H](CO)C(=O)N[C@@H](CCCNC(=N)N)C(=O)NCC(=O)N[C@@H](CC(=O)O)C(=O)N[C@@H](CO)C(=O)O)cc4CC[C@H]3[C@@H]1CCC2=O (X1-RGDSRGDS-OH)	Non-toxic

---

Tested on: Mus musculus
Experiment: Toxicity in ovariectomized ICR mouse assessed as change in uterine weight at 110.3 nmol/kg, po after 4 weeks
Type: organism-based
Settings: in vivo, 672 h
Numbered stars: 1 amine (or outer) side, 2 acyl side, 3 side chain; on linkers, the order of the positions; unused ones are H or OH. Bridge positions count the residues as written; N and C are the ends. Peptide text beside a SMILES is read from it. I, II: the chains in the order shown. * marks the point of attachment. Estradiol(3-OCH2CO,17-OSuc) = C[C@]12CC[C@@H]3c4ccc(OCC(=O)[*:1])cc4CC[C@H]3[C@@H]1CC[C@@H]2OC(=O)CCC(=O)[*:2]; Succinyl(O17-estradiol) = C[C@]12CC[C@@H]3c4ccc(O)cc4CC[C@H]3[C@@H]1CC[C@@H]2OC(=O)CCC(=O)*; Acetyl(estradiol-3-yloxy) = C[C@]12CC[C@@H]3c4ccc(OCC(=O)*)cc4CC[C@H]3[C@@H]1CC[C@@H]2O; X1 = C[C@]12CC[C@@H]3c4ccc(OCC(=O)*)cc4CC[C@H]3[C@@H]1CCC2=O

COMPOUND	EXPERIMENTAL SYSTEM	RESULT UNIT	Activity
C[C@]12CC[C@@H]3c4ccc(OCC(=O)N[C@@H](CCCNC(=N)N)C(=O)NCC(=O)N[C@@H](CC(=O)O)C(=O)N[C@@H](CO)C(=O)O)cc4CC[C@H]3[C@@H]1CC[C@@H]2O ({Acetyl(estradiol-3-yloxy)}-RGDS-OH)	Mus musculus	g	0.064
CC(C)[C@H](NC(=O)[C@H](CC(=O)O)NC(=O)CNC(=O)[C@H](CCCNC(=N)N)NC(=O)[C@@H](NC(=O)[C@H](CC(=O)O)NC(=O)CNC(=O)[C@H](CCCNC(=N)N)NC(=O)COc1ccc2c(c1)CC[C@@H]1[C@@H]2CC[C@]2(C)C(=O)CC[C@@H]12)C(C)C)C(=O)O (X1-RGDVRGDV-OH)	Mus musculus	g	0.059
C[C@]12CC[C@@H]3c4ccc(OCC(=O)N[C@@H](CCCNC(=N)N)C(=O)NCC(=O)N[C@@H](CC(=O)O)C(=O)N[C@@H](CO)C(=O)O)cc4CC[C@H]3[C@@H]1CC[C@@H]2OC(=O)CCC(=O)N[C@@H](CCCNC(=N)N)C(=O)NCC(=O)N[C@@H](CC(=O)O)C(=O)N[C@@H](CO)C(=O)O (I: RGDS-OH / II: RGDS-OH; linker I:N-II:N via Estradiol(3-OCH2CO,17-OSuc))	Mus musculus	g	0.05
C[C@]12CC[C@@H]3c4ccc(O)cc4CC[C@H]3[C@@H]1CC[C@@H]2OC(=O)CCC(=O)N[C@@H](CCCNC(=N)N)C(=O)NCC(=O)N[C@@H](CC(=O)O)C(=O)N[C@@H](CO)C(=O)O ({Succinyl(O17-estradiol)}-RGDS-OH)	Mus musculus	g	0.063
C[C@]12CC[C@@H]3c4ccc(OCC(=O)N[C@@H](CCCNC(=N)N)C(=O)NCC(=O)N[C@@H](CC(=O)O)C(=O)N[C@@H](Cc5ccccc5)C(=O)O)cc4CC[C@H]3[C@@H]1CCC2=O (X1-RGDF-OH)	Mus musculus	g	0.06
CC(C)[C@H](NC(=O)[C@H](CC(=O)O)NC(=O)CNC(=O)[C@H](CCCNC(=N)N)NC(=O)COc1ccc2c(c1)CC[C@@H]1[C@@H]2CC[C@]2(C)[C@@H](O)CC[C@@H]12)C(=O)O ({Acetyl(estradiol-3-yloxy)}-RGDV-OH)	Mus musculus	g	0.064
C[C@]12CC[C@@H]3c4ccc(O)cc4CC[C@H]3[C@@H]1CCC2=O	Mus musculus	g	0.114
CC(C)[C@H](NC(=O)[C@H](CC(=O)O)NC(=O)CNC(=O)[C@H](CCCNC(=N)N)NC(=O)CCC(=O)O[C@H]1CC[C@H]2[C@@H]3CCc4cc(OCC(=O)N[C@@H](CCCNC(=N)N)C(=O)NCC(=O)N[C@@H](CC(=O)O)C(=O)N[C@H](C(=O)O)C(C)C)ccc4[C@H]3CC[C@]12C)C(=O)O (I: RGDV-OH / II: RGDV-OH; linker I:N-II:N via Estradiol(3-OCH2CO,17-OSuc))	Mus musculus	g	0.059
CC(C)[C@H](NC(=O)[C@H](CC(=O)O)NC(=O)CNC(=O)[C@H](CCCNC(=N)N)NC(=O)COc1ccc2c(c1)CC[C@@H]1[C@@H]2CC[C@]2(C)C(=O)CC[C@@H]12)C(=O)O (X1-RGDV-OH)	Mus musculus	g	0.066

---

Recorded Activity by entry
Test system: Mus musculus
Test: Toxicity in ovariectomized ICR mouse assessed as tail bleeding time at 110.3 nmol/kg, po for 90 mins
Format: organism-based
Conditions: in vivo, 1.5 h
Numbered stars: 1 amine (or outer) side, 2 acyl side, 3 side chain; on linkers, the order of the positions; unused ones are H or OH. Bridge positions count the residues as written; N and C are the ends. Peptide text beside a SMILES is read from it. I, II: the chains in the order shown. * marks the point of attachment. Estradiol(3-OCH2CO,17-OSuc) = C[C@]12CC[C@@H]3c4ccc(OCC(=O)[*:1])cc4CC[C@H]3[C@@H]1CC[C@@H]2OC(=O)CCC(=O)[*:2]; Succinyl(O17-estradiol) = C[C@]12CC[C@@H]3c4ccc(O)cc4CC[C@H]3[C@@H]1CC[C@@H]2OC(=O)CCC(=O)*; Acetyl(estradiol-3-yloxy) = C[C@]12CC[C@@H]3c4ccc(OCC(=O)*)cc4CC[C@H]3[C@@H]1CC[C@@H]2O; X1 = C[C@]12CC[C@@H]3c4ccc(OCC(=O)*)cc4CC[C@H]3[C@@H]1CCC2=O

COMPOUND	RESULT UNIT	Activity
CC(C)[C@H](NC(=O)[C@H](CC(=O)O)NC(=O)CNC(=O)[C@H](CCCNC(=N)N)NC(=O)COc1ccc2c(c1)CC[C@@H]1[C@@H]2CC[C@]2(C)C(=O)CC[C@@H]12)C(=O)O (X1-RGDV-OH)	s	571
C[C@]12CC[C@@H]3c4ccc(O)cc4CC[C@H]3[C@@H]1CC[C@@H]2OC(=O)CCC(=O)N[C@@H](CCCNC(=N)N)C(=O)NCC(=O)N[C@@H](CC(=O)O)C(=O)N[C@@H](CO)C(=O)O ({Succinyl(O17-estradiol)}-RGDS-OH)	s	561
C[C@]12CC[C@@H]3c4ccc(OCC(=O)N[C@@H](CCCNC(=N)N)C(=O)NCC(=O)N[C@@H](CC(=O)O)C(=O)N[C@@H](CO)C(=O)O)cc4CC[C@H]3[C@@H]1CC[C@@H]2OC(=O)CCC(=O)N[C@@H](CCCNC(=N)N)C(=O)NCC(=O)N[C@@H](CC(=O)O)C(=O)N[C@@H](CO)C(=O)O (I: RGDS-OH / II: RGDS-OH; linker I:N-II:N via Estradiol(3-OCH2CO,17-OSuc))	s	570
C[C@]12CC[C@@H]3c4ccc(OCC(=O)N[C@@H](CCCNC(=N)N)C(=O)NCC(=O)N[C@@H](CC(=O)O)C(=O)N[C@@H](CO)C(=O)O)cc4CC[C@H]3[C@@H]1CC[C@@H]2O ({Acetyl(estradiol-3-yloxy)}-RGDS-OH)	s	577
